# TARGET: acetylcholine receptor
# ASSAY REMARKS: SPR, AchR on chip, peptide 10 uM
The entries below are paired with their reported Binding affinity (RU).

RGQRK [5mer-515]    56 RU
KSLQK [5mer-500]    63 RU
RLISK [5mer-13]    52 RU

Exercise: Which Binding affinity (RU) is listed for RWYLK [5mer-248] ?
Key: 63 RU

Exercise: Which Binding affinity (RU) is listed for KRFLK [5mer-228] ?
Key: 53 RU

Exercise: Which Binding affinity (RU) is listed for RVLCR [5mer-327] ?
Key: 86 RU

Exercise: Which Binding affinity (RU) is listed for RLLSR [5mer-28] ?
Key: 74 RU

Exercise: Which Binding affinity (RU) is listed for KVRCR [5mer-241] ?
Key: 51 RU

Exercise: Which Binding affinity (RU) is listed for KGQYR [5mer-545] ?
Key: 80 RU

Exercise: Which Binding affinity (RU) is listed for RVVTR [5mer-539] ?
Key: 70 RU

Exercise: Which Binding affinity (RU) is listed for RLYLK [5mer-512] ?
Key: 70 RU
